# measured_on: Trifunctional purine biosynthetic protein adenosine-3 (Mus musculus)
# Sequence (Q64737 whole entry): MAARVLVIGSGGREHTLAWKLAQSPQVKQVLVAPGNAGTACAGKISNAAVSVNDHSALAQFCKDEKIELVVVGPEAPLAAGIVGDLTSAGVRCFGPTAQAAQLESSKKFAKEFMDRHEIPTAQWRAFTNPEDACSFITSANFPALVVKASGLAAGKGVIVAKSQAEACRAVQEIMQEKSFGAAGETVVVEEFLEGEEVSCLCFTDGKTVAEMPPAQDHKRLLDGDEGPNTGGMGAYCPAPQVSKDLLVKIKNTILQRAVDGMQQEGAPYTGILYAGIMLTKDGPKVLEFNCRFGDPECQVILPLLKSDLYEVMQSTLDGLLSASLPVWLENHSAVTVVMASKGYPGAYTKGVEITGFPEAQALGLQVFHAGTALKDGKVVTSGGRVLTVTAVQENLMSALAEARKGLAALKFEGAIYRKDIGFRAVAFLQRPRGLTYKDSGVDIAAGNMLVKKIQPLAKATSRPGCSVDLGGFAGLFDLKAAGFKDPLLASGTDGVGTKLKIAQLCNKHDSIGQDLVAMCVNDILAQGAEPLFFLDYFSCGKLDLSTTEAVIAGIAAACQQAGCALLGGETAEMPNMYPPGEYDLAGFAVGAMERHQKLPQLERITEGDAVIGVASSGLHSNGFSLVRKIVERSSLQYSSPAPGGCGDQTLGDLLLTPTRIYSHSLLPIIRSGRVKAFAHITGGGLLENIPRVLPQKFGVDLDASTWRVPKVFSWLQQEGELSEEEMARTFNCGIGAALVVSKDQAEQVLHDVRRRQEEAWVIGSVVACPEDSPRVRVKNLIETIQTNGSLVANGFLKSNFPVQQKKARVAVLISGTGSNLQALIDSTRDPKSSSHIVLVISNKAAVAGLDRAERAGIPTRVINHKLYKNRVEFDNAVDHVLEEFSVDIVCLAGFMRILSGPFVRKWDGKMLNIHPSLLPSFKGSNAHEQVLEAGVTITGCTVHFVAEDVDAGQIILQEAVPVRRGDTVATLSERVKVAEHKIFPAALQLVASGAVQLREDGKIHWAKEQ
# experimental_details: Inhibition of mouse recombinant GARFTase
Give measured pIC50 for each item. Keep answers brief.
Note on pIC50: it is the negative log10 of concentration, concentration in mol/L.

Inquiry: Quick one: pIC50 of `Nc1nc2[nH]c(CCCCc3ccc(C(=O)N[C@@H](CCC(=O)O)C(=O)O)cc3)cc2c(=O)[nH]1` ?
Reply text: 6.82

Inquiry: Quick one: pIC50 for `Nc1nc2[nH]c(CCCCCCc3ccc(C(=O)N[C@@H](CCC(=O)O)C(=O)O)cc3)cc2c(=O)[nH]1` ?
Reply text: 5.60

Inquiry: Returns the measured pIC50 for the input compound. Input: `Nc1nc2[nH]c(CCCc3ccc(C(=O)N[C@@H](CCC(=O)O)C(=O)O)cc3)cc2c(=O)[nH]1`
Reply text: 5.61

Inquiry: Which measured pIC50 value corresponds to `Nc1nc2[nH]c(CCCCCc3ccc(C(=O)N[C@@H](CCC(=O)O)C(=O)O)cc3)cc2c(=O)[nH]1` ?
Reply text: 5.65

###

# Test system: KB
# experimental_details: Antiproliferative activity against human RFC and FRalpha expressing human KB cells in presence of folic acid
observed_property: IC50

Inquiry: Checklist item: IC50 tested on KB, entry `Nc1nc2[nH]c(CCCCCCc3ccc(C(=O)N[C@@H](CCC(=O)O)C(=O)O)cc3)cc2c(=O)[nH]1` , value?
Reply text: > 1000 nM

Inquiry: Any idea what IC50 came out for `Nc1nc2[nH]c(CCCCCc3ccc(C(=O)N[C@@H](CCC(=O)O)C(=O)O)cc3)cc2c(=O)[nH]1` on KB?
Reply text: > 1000 nM

Inquiry: For the record `Nc1nc2[nH]c(Cc3ccc(C(=O)N[C@@H](CCC(=O)O)C(=O)O)cc3)cc2c(=O)[nH]1` , what value of IC50 is listed for KB?
Reply text: > 1000 nM

Inquiry: Lab note: need IC50 with KB for entry `Nc1nc2[nH]c(CCCCc3ccc(C(=O)N[C@@H](CCC(=O)O)C(=O)O)cc3)cc2c(=O)[nH]1` , please look it up.
Reply text: > 1000 nM

Inquiry: Reported IC50 for KB, given `Nc1nc2[nH]c(CCCc3ccc(C(=O)N[C@@H](CCC(=O)O)C(=O)O)cc3)cc2c(=O)[nH]1` ?
Reply text: > 1000 nM

Inquiry: Missing value: IC50, KB, entry `Nc1nc2ccc3ccc(CNc4ccc5c(c4)CN([C@@H](CCC(=O)O)C(=O)O)C5=O)cc3c2c(=O)[nH]1` . Fill in?
Reply text: 32 nM

###

Provide the reported IC50 of each item.
# Tested on: R2
# experimental_details: Antiproliferative activity against human RFC expressing Chinese hamster R2 cells

Inquiry: Please give the measured IC50 for this compound: `Nc1nc2[nH]c(CCCCCCc3ccc(C(=O)N[C@@H](CCC(=O)O)C(=O)O)cc3)cc2c(=O)[nH]1`
Reply text: > 1000 nM

Inquiry: If you can, please state the reported IC50 value of `Nc1nc2[nH]c(Cc3ccc(C(=O)N[C@@H](CCC(=O)O)C(=O)O)cc3)cc2c(=O)[nH]1` .
Reply text: > 1000 nM

Inquiry: Could you share which IC50 value was measured for `Nc1nc2[nH]c(CCCCCc3ccc(C(=O)N[C@@H](CCC(=O)O)C(=O)O)cc3)cc2c(=O)[nH]1` ?
Reply text: > 1000 nM

Inquiry: Using the record for `Nc1nc2[nH]c(CCCc3ccc(C(=O)N[C@@H](CCC(=O)O)C(=O)O)cc3)cc2c(=O)[nH]1` , report its IC50.
Reply text: 448 nM

Inquiry: Entry `Nc1nc2[nH]c(CCCCc3ccc(C(=O)N[C@@H](CCC(=O)O)C(=O)O)cc3)cc2c(=O)[nH]1` : reported IC50 = ?
Reply text: > 1000 nM
